- ASSAY SUMMARY: Micellar liquid chromatography (MLC), ODS-2 column, Brij 35 effluent: chromatographic lipophilicity
- Type: physicochemical
- SETUP CONDITIONS: 0.125 M Brij 35, 7% isopropanol, pH 7.4, ODS-2 column, 25 °C
- From the text: There are several theories that describe the effect of the concentration of the surfactant in the effluent on the retention of the solute in MLC [23]. […] The KAM and km parameters can be evaluated from the slope and intercept of the experimental 1/k vs. [M] relationships. Equation (2) describes a linear dependence between decreasing retention and increasing micelle concentration. […] The micellar retention parameter, log km, is considered analogous to the log kw parameter evaluated in RPLC. […]
Categories are assigned from the measured k (MLC retention factor) using these intervals: Low (below 8), Mid (8 to below 20), High (20 or more)

Solved cases below.
INSERT INTO measurements (molecule, assigned_category) VALUES
  ('CC(C)c1nnc2n(c1=O)CCN2c1cccc(Cl)c1 [Compound 4]', 'High'),
  ('Cc1ccc(N2CCn3c2nnc(C(F)(F)F)c3=O)cc1 [Compound 9]', 'Mid'),
  ('O=c1c(C(F)(F)F)nnc2n1CCN2c1ccccc1 [Compound 7]', 'Mid'),
  ('CCOC(=O)c1nnc2n(c1=O)CCN2c1ccc(Cl)cc1 [Compound 18]', 'Low'),
  ('CCOC(=O)c1nnc2n(c1=O)CCN2c1ccccc1 [Compound 15]', 'Low'),
  ('Cc1ccccc1N1CCn2c1nnc(C(F)(F)F)c2=O [Compound 8]', 'Low'),
  ('CCOC(=O)c1nnc2n(c1=O)CCN2c1ccc(C)cc1 [Compound 16]', 'Low'),
  ('CCOC(=O)c1nnc2n(c1=O)CCN2c1ccc(Cl)c(Cl)c1 [Compound 19]', 'Mid'),
  ('CC(C)c1nnc2n(c1=O)CCN2c1ccccc1Cl [Compound 3]', 'Low'),
  ('O=c1c(C(F)(F)F)nnc2n1CCN2c1ccc(Cl)c(Cl)c1 [Compound 14]', 'High');

Consider O=c1c(C(F)(F)F)nnc2n1CCN2c1ccc(Cl)cc1 [Compound 13] . To which k (MLC retention factor) class does it belong?
High

Consider O=c1c(C(F)(F)F)nnc2n1CCN2c1ccccc1Cl [Compound 11] . To which k (MLC retention factor) class does it belong?
Mid

Consider CC(C)c1nnc2n(c1=O)CCN2c1ccccc1 [Compound 1] . To which k (MLC retention factor) class does it belong?
Mid

Consider O=c1c(C(F)(F)F)nnc2n1CCN2c1cccc(Cl)c1 [Compound 12] . To which k (MLC retention factor) class does it belong?
High

Consider COc1ccccc1N1CCn2c1nnc(C(F)(F)F)c2=O [Compound 10] . To which k (MLC retention factor) class does it belong?
Low

====

// reported k (MLC retention factor) per item
- ASSAY SUMMARY: Micellar liquid chromatography (MLC), ODS-2 column, Brij 35 effluent: chromatographic lipophilicity
- Type: physicochemical
- SETUP CONDITIONS: 0.15 M Brij 35, 7% isopropanol, pH 7.4, ODS-2 column, 25 °C
No unit in the answer, please; the number alone is enough.

INSERT INTO measurements (compound, measured_result) VALUES
  ('CC(C)c1nnc2n(c1=O)CCN2c1ccccc1 [Compound 1]', 10.53),
  ('CC(C)c1nnc2n(c1=O)CCN2c1ccc(Cl)cc1 [Compound 5]', 24.10),
  ('Cc1ccccc1N1CCn2c1nnc(C(F)(F)F)c2=O [Compound 8]', 5.28),
  ('COc1ccccc1N1CCn2c1nnc(C(F)(F)F)c2=O [Compound 10]', 4.79),
  ('CC(C)c1nnc2n(c1=O)CCN2c1ccc(Cl)c(Cl)c1 [Compound 6]', 29.82),
  ('CCOC(=O)c1nnc2n(c1=O)CCN2c1ccc(Cl)cc1 [Compound 18]', 7.75),
  ('O=c1c(C(F)(F)F)nnc2n1CCN2c1cccc(Cl)c1 [Compound 12]', 19.83),
  ('Cc1ccc(N2CCn3c2nnc(C(C)C)c3=O)cc1 [Compound 2]', 17.34),
  ('CCOC(=O)c1nnc2n(c1=O)CCN2c1ccccc1 [Compound 15]', 1.84),
  ('Cc1ccc(N2CCn3c2nnc(C(F)(F)F)c3=O)cc1 [Compound 9]', 16.14);

k (MLC retention factor) for O=c1c(C(F)(F)F)nnc2n1CCN2c1ccccc1 [Compound 7] is 10.02

k (MLC retention factor) for CCOC(=O)c1nnc2n(c1=O)CCN2c1cccc(Cl)c1 [Compound 17] is 8.00

k (MLC retention factor) for O=c1c(C(F)(F)F)nnc2n1CCN2c1ccc(Cl)cc1 [Compound 13] is 22.45

All values here come from paper PMC8072580.
